Molecular target: human ether-à-go-go-related gene (hERG) potassium channel (human, UniProt Q12809);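 further: peak tail current of the secondary pulse compared with the same well before compound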
Sequence (Q12809 whole entry, looked up): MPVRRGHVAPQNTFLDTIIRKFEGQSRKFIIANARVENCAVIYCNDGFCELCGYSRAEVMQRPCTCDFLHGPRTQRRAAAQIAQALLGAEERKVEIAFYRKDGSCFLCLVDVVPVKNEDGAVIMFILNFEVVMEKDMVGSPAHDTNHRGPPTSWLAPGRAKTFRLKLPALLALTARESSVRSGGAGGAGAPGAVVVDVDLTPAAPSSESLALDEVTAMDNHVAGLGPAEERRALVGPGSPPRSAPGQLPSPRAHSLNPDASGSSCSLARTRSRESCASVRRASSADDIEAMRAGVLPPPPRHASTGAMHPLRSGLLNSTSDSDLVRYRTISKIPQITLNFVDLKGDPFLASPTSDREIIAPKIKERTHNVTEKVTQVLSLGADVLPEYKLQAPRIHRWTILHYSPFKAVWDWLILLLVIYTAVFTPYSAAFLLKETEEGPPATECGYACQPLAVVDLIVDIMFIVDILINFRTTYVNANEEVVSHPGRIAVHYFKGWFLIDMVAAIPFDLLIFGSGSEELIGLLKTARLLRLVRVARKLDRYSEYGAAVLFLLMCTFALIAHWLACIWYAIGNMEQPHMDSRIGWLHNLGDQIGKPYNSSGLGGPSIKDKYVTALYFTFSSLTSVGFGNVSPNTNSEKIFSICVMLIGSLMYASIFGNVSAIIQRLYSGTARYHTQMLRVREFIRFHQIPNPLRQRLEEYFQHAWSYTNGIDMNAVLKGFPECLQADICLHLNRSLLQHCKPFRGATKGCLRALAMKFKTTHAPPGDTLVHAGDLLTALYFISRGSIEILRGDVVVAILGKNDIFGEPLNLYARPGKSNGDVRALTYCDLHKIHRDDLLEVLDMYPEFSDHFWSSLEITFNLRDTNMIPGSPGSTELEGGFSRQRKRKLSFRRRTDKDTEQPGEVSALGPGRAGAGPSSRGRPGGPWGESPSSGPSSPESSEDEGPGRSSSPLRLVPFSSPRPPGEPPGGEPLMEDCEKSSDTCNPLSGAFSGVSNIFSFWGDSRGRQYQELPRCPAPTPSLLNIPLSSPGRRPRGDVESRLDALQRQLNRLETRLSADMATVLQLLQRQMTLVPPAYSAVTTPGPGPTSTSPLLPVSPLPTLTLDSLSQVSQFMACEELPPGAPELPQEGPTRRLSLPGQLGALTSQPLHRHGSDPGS
Experiment: primary screen, population patch clamp on CHO cells stably expressing hERG; higher = less effect of the substance
Out of some 310,000 compounds screened, about 14,000 (4.5%) showed an effect of 50% or more. Effects have a minus sign here. The full list was thinned out, with strong results kept by preference.
Recorded endpoint: hERG current change (%, negative = inhibition) at 10uM (%)
Kindly provide the numeric value in % only, without the unit symbol.

Q: So what's the measured hERG current change (%, negative = inhibition) at 10uM for this one? `CC(=O)Nc1ccc2c(CSc3nnc(-c4cccnc4)n3-c3ccc(C)cc3C)cc(=O)oc2c1`
Result: -17.8

Q: Another compound to look at: `N#Cc1ccc(CSc2nnc(-c3cccnc3)n2-c2ccccc2)cc1`
Result: -71.2

Q: Another compound to look at: Cc1cc(O)c(-c2n[nH]c3c2C(c2cccc(O)c2)N(Cc2cccnc2)C3=O)cc1Cl (centres unmarked)
Result: 11.4

Q: Another compound to look at: `O=C(O)c1ccc(CSc2nnc(-c3cccnc3)n2-c2ccc(Br)cc2)cc1`
Result: 15.1

Q: Another compound to look at: `N#CCSc1nnc(-c2cccnc2)n1-c1ccccc1`
Result: -7.93

Q: Another compound to look at: `CCOc1ccc(-n2c(SCc3ccc(C#N)cc3)nnc2-c2cccnc2)cc1`
Result: -71.9

Q: Another compound to look at: `O=C(Cn1cccc1)N1CCN(C(c2ccccc2)c2ccccc2)CC1`
Result: -3.68

Q: Another compound to look at: `O=C(Cc1ccccc1)Nc1nnc(-c2cccc([N+](=O)[O-])c2)s1`
Result: 5.44

Q: Another compound to look at: `N#Cc1ccc(CSc2nnc(-c3c[nH]c4ccccc34)n2-c2ccccc2)cc1`
Result: 5.38

Q: Another compound to look at: COc1ccc(-c2[nH]ncc2CNC(C)CCn2cccn2)cc1F (centres unmarked)
Result: -2.23

Q: Another compound to look at: `CCOc1ccc(-n2c(SCc3cc(=O)oc4cc(C)ccc34)nnc2-c2cccnc2)cc1`
Result: -70.7

Q: Another compound to look at: `COc1cc(Br)cc(CN2CCN(C=O)CC2)c1O`
Result: -2.6

Q: Another compound to look at: `CCOc1ccc(-n2c(SCc3cc(=O)oc4cc(C)c(C(C)C)cc34)nnc2-c2cccnc2)cc1`
Result: -37.2

Q: Another compound to look at: CC(CN(C)Cc1nc(Cc2cccc(C(F)(F)F)c2)no1)CN1CCCC1 (centres unmarked)
Result: -63.2

Q: Another compound to look at: `CCCCNC(=O)c1onc(CSc2ccc(F)cc2)c1C(=O)NCCCC`
Result: -10.2

Q: Another compound to look at: CCC(C)(C)NC(=O)C(c1ccncc1)N(Cc1ccc(C)cc1)C(=O)c1csnn1 (centres unmarked)
Result: -14.1

Q: Another compound to look at: CN1CCCC2(CCCN(Cc3nc(Cc4cccc(C(F)(F)F)c4)no3)C2)C1 (centres unmarked)
Result: -45.2

Q: Another compound to look at: `COc1ccc(-n2nnnc2/C(=C/N(C)C)C(=O)c2ccccc2)cc1`
Result: -4.92

Q: Another compound to look at: `O=c1[nH]oc2cc(Cl)ccc12`
Result: 11.3

Q: Another compound to look at: `COc1ccc(-n2c(SCC#N)nnc2-c2cccnc2)cc1`
Result: -34

Values compiled from paper PMC4336329.
